src = the METLIN SMRT retention time set (Domingo-Almenara et al. 2019)

Test: gradient 5% acetonitrile 3 min, to 50% in 2 min, to 85% in 15 min, held 3 min, 100 µL/min
Conditions: column: Zorbax Extend-C18 2.1 x 50 mm; eluents: water / acetonitrile, 0.1% formic acid
experimentalEndpoint: RP-LC retention time (s)
Response body: numeric value in s, unit text excluded.

Past entries and their recorded results:
Prompt: // RP-LC retention time lookup, key: `O=C(Cc1csc(NC(=O)Nc2cccc(Cl)c2)n1)Nc1ccccc1`
Response: 924

Prompt: // RP-LC retention time lookup, key: CCNC(=O)N1CCN(c2ccc(-c3noc(C4CC(=O)N(c5ccc(C)c(C)c5)C4)n3)cc2)CC1 (stereo not drawn)
Response: 885

Proceed to the following item.
Prompt: // RP-LC retention time lookup, key: COc1cc(NC(=O)CC2=C3CCCCC3NC2=O)cc(OC)c1 (stereo not drawn)
Response: 706

----------
Collected RP-LC retention time values appear next to each entry.
Experiment: gradient 5% acetonitrile 3 min, to 50% in 2 min, to 85% in 15 min, held 3 min, 100 µL/min
Details: column: Zorbax Extend-C18 2.1 x 50 mm; eluents: water / acetonitrile, 0.1% formic acid
Response body: numeric value in s, unit text excluded.

Past entries and their recorded results:
Prompt: // RP-LC retention time lookup, key: CC(C(=O)N1CCCC1)C1CCN(C(=O)c2ccc3nc(-c4ccccc4)oc3c2)CC1 (stereo not drawn)
Response: 818

Prompt: // RP-LC retention time lookup, key: `CC(C)Cn1c(=O)c2cc(C(=O)Nc3ccc(N4CCOCC4)cc3)nn2c2ccccc21`
Response: 953

Prompt: // RP-LC retention time lookup, key: CN(C)CCC1c2ccc(Cl)cc2CCc2cccnc21 (stereo not drawn)
Response: 666

Prompt: // RP-LC retention time lookup, key: `CC(C)C(=O)Nc1ccc(C2(C(=O)NCc3ccc(F)c(Cl)c3)CCC2)cc1`
Response: 927

Prompt: // RP-LC retention time lookup, key: `O=C(Cn1ccc2sccc2c1=O)Nc1cccc(Br)c1`
Response: 793

Others:
Prompt: // RP-LC retention time lookup, key: CCOc1ccccc1N1CCN(CC(O)c2ccc3c(c2)OCO3)CC1 (stereo not drawn)
Response: 664

Prompt: // RP-LC retention time lookup, key: `O=S(=O)(c1cccc(F)c1)N1CC(F)(F)C[C@H]1CN1CCc2ccccc2C1`
Response: 733

Prompt: // RP-LC retention time lookup, key: COc1ccc(-c2nc3cccnc3n2C2CCN(S(=O)(=O)c3ccccc3)C2)cc1 (stereo not drawn)
Response: 778

Prompt: // RP-LC retention time lookup, key: `COC(=O)C1=CN(c2ccc(OC)c(OC)c2)c2ccccc2S1(=O)=O`
Response: 763

Prompt: // RP-LC retention time lookup, key: O=C(NCc1cccc(F)c1)C1CCCN(c2nnc3c(Cl)cccn23)C1 (stereo not drawn)
Response: 701

Prompt: // RP-LC retention time lookup, key: `CC(C)Oc1ccccc1CN1CC(F)(F)C[C@H]1COc1ccncc1`
Response: 752

Prompt: // RP-LC retention time lookup, key: `COc1cc(OC)cc(C(=O)Nc2cc(-c3cn4cccnc4n3)ccc2OC)c1`
Response: 708

Prompt: // RP-LC retention time lookup, key: `Cc1cc2n(n1)CCCN2C(=O)CCC(=O)Nc1ccc(Br)cc1F`
Response: 735

----------
Assay: gradient 5% acetonitrile 3 min, to 50% in 2 min, to 85% in 15 min, held 3 min, 100 µL/min
Conditions: column: Zorbax Extend-C18 2.1 x 50 mm; eluents: water / acetonitrile, 0.1% formic acid
experimentalEndpoint: RP-LC retention time (s)
Response body: numeric value in s, unit text excluded.

Prompt: // RP-LC retention time lookup, key: `Cc1sc(C)c(S(=O)(=O)Nc2ccc3c(c2)OCCO3)c1-c1cc(C(F)(F)F)on1`
Response: 1070

Prompt: // RP-LC retention time lookup, key: `N#Cc1ccccc1NC(=O)c1ccc(N2C(=O)CCC2=O)cc1`
Response: 639

Prompt: // RP-LC retention time lookup, key: `CCc1cc(=O)n(CC(=O)Nc2ccccc2F)c(N2CCOCC2)n1`
Response: 711

Prompt: // RP-LC retention time lookup, key: `CCN1N=C(C(=O)N2CCC(C)CC2)S(=O)(=O)c2ccccc21`
Response: 844

Prompt: // RP-LC retention time lookup, key: `Cc1ccc(-n2c(=O)c3c(cc(C)n3C)n(CC(=O)Nc3ccc(F)cc3)c2=O)cc1`
Response: 800

Prompt: // RP-LC retention time lookup, key: COc1ccc(Br)cc1CNC(=O)C1CCCN(C(=O)c2[nH]c(C)cc2C)C1 (stereo not given)
Response: 808

----------
Assay: gradient 5% acetonitrile 3 min, to 50% in 2 min, to 85% in 15 min, held 3 min, 100 µL/min
Conditions: column: Zorbax Extend-C18 2.1 x 50 mm; eluents: water / acetonitrile, 0.1% formic acid
Use 800 s as the dividing line for RP-LC retention time, with the line itself on the fulfilled side and lower values as not fulfilled.

Prompt: Decide: is the reported value of RP-LC retention time for `CCc1cccc(NC(=O)C2CCN(S(=O)(=O)c3ccc4c(c3)sc(=O)n4C)CC2)c1` equal to or greater than 800 s?
Response: fulfilled

Prompt: Decide: is the reported value of RP-LC retention time for COc1cccc(C2Cn3nnc(-c4nc(-c5ccc(Cl)cc5)no4)c3CO2)c1 (stereo not drawn) equal to or greater than 800 s?
Response: fulfilled

Prompt: Decide: is the reported value of RP-LC retention time for `Cc1cc(C)n(Cc2ccc(C(=O)N3C[C@H]4C[C@H](C3)[C@H]3CCCC(=O)N3C4)o2)n1` equal to or greater than 800 s?
Response: not fulfilled

Prompt: Decide: is the reported value of RP-LC retention time for `Cc1nn(-c2ccc(Cl)nn2)c(C)c1Cl` equal to or greater than 800 s?
Response: fulfilled

Prompt: Decide: is the reported value of RP-LC retention time for `Cn1ncc2c3ccccc3n(CC(=O)N3CCN(c4ncccn4)CC3)c2c1=O` equal to or greater than 800 s?
Response: not fulfilled

Prompt: Decide: is the reported value of RP-LC retention time for `CC(C)NC(=O)N1CCCN(Cc2cccs2)CC1` equal to or greater than 800 s?
Response: not fulfilled

Others:
Prompt: Decide: is the reported value of RP-LC retention time for `CCOc1ccc2nc(NC(=O)Cn3nc(C(=O)N4CCCCC4)c4ccccc43)sc2c1` equal to or greater than 800 s?
Response: fulfilled

----------
Test: gradient 5% acetonitrile 3 min, to 50% in 2 min, to 85% in 15 min, held 3 min, 100 µL/min
Details: column: Zorbax Extend-C18 2.1 x 50 mm; eluents: water / acetonitrile, 0.1% formic acid
Use 900 s as the dividing line for RP-LC retention time, with the line itself on the 1 side and lower values as 0.

Prompt: Decide: is the reported value of RP-LC retention time for `CCc1nccn1Cc1nc(-c2cccc(Br)c2)no1` equal to or greater than 900 s?
Response: 0

Others:
Prompt: Decide: is the reported value of RP-LC retention time for COc1cc(-c2noc(C3CC(=O)N(c4ccc(C)c(F)c4)C3)n2)cc(OC)c1OC (stereo unspecified) equal to or greater than 900 s?
Response: 1

Prompt: Decide: is the reported value of RP-LC retention time for `CC1(C)Cc2cccc(OCC(=O)NCCc3ccc(S(N)(=O)=O)cc3)c2O1` equal to or greater than 900 s?
Response: 0

Prompt: Decide: is the reported value of RP-LC retention time for `COc1ccccc1Nc1nc(-c2ccc(Br)cc2)cs1` equal to or greater than 900 s?
Response: 1

Prompt: Decide: is the reported value of RP-LC retention time for `COc1ccc(OC)c(CNC(=O)C2CCN(c3cncnc3N3CCCCC3)CC2)c1` equal to or greater than 900 s?
Response: 0

----------
Assay: gradient 5% acetonitrile 3 min, to 50% in 2 min, to 85% in 15 min, held 3 min, 100 µL/min
Conditions: column: Zorbax Extend-C18 2.1 x 50 mm; eluents: water / acetonitrile, 0.1% formic acid
So basically, the class depends on measured RP-LC retention time, and the ranges are low: < 700 s; intermediate: ≥ 700 s and < 800 s; high: ≥ 800 s

Example results:
Prompt: Category of COc1ccc(CCS(=O)(=O)Nc2ccc3c(c2)N(C(=O)C2CCCO2)CC3)cc1 (stereo not given) :
Response: intermediate

Prompt: Category of `O=C(Cn1nc2c3ccc(F)cc3ncn2c1=O)Nc1ccc(Cl)cc1` :
Response: intermediate

Prompt: Category of `O=C(c1ccc2ncnc(N3CCCC3)c2c1)N1CCN(c2ccccc2)CC1` :
Response: low

Others:
Prompt: Category of `CCOC(=O)CCc1c(C)nn(-c2cc(N(C)C)ncn2)c1C` :
Response: high

Prompt: Category of COc1ccccc1-c1nnc(NC(=O)C2CC(=O)N(c3ccc(F)cc3)C2)o1 (stereo not given) :
Response: low

----------
Experiment: gradient 5% acetonitrile 3 min, to 50% in 2 min, to 85% in 15 min, held 3 min, 100 µL/min
Details: column: Zorbax Extend-C18 2.1 x 50 mm; eluents: water / acetonitrile, 0.1% formic acid
experimentalEndpoint: RP-LC retention time

Past entries and their recorded results:
Prompt: // RP-LC retention time lookup, key: O=C(CN1C(=O)CCC1=O)N1CCC(c2noc(-c3cnccn3)n2)C1 (stereo not given)
Response: 591 s

Prompt: // RP-LC retention time lookup, key: `COc1cccc(S(=O)(=O)N2CCC(c3nc(C(=O)N(C)C)c(C)o3)CC2)c1`
Response: 794 s

Prompt: // RP-LC retention time lookup, key: CCN1C(=O)C(C)(C(=O)NCc2cccc(C)c2)Oc2cccnc21 (stereo not given)
Response: 744 s

Prompt: // RP-LC retention time lookup, key: COCC1CN(S(=O)(=O)c2cc(F)ccc2C)CC12CCNCC2 (stereo not given)
Response: 641 s

Proceed to the following item.
Prompt: // RP-LC retention time lookup, key: `CCOc1cc([C@@H](CS(C)(=O)=O)N2C(=O)c3cccc(NC(C)=O)c3C2=O)ccc1OC`
Response: 859 s
